Biological target: LXR β LBD protein (Homo sapiens (Human))
Sequence (P55055 222-460 limits assumed): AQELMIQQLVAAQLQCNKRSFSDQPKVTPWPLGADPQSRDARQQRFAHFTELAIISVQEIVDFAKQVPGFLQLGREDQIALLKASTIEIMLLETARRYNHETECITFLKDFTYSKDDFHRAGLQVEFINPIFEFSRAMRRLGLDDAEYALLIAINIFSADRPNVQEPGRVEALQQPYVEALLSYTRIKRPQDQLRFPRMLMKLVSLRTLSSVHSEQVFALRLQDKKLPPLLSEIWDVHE
Assay: biochemical
Type: binding
Conditions: read-out: LXRβ Binding Ki
pKi: −log10 of the molar value.
metric name: pKi

> print(dat)
                           smiles.structure                             system.tested  metric.name  relational.operator  measured
1  CC(C)c1ccc(CN2CCN(c3cccc(S(C)(=O)=O)c3)C[C@H]2c2ccccc2)cc1  LXR β LBD protein (Homo sapiens (Human))          pKi                    <      5.60
2  CC(C)[C@@H]1CN(c2ccc(F)c(S(C)(=O)=O)c2)CCN1c1ncc(C(=O)N(C)CCCNC(=O)OC(C)(C)C)c(C(F)(F)F)n1  LXR β LBD protein (Homo sapiens (Human))          pKi                    =      6.59
3  CC(C)(O)c1cc(CN2CCN(c3cccc(S(C)(=O)=O)c3)C[C@@H]2c2ccccc2)ccc1C(F)(F)F  LXR β LBD protein (Homo sapiens (Human))          pKi                    =      6.65
4  CC(C)[C@@H]1CN(c2ccc(F)c(S(C)(=O)=O)c2)CCN1c1nc2cnccc2s1  LXR β LBD protein (Homo sapiens (Human))          pKi                    =      6.29

---

Target: Gal4 DNA binding domain fused to the LBD of LXRα in HEK293 cells (Homo sapiens (Human), UniProt Q13133)
Test: LXR luciferase transcriptional reporter gene assay, agonist mode, LXRα
Type: cell-based
Conditions: agonist mode; read-out: Cell LXRα EC50
hey, just use 1 if measured EC50 is less than 2000 nM, otherwise 0

> print(dat)
                                   molecule  class.assignment
1  CS(=O)(=O)c1cccc(N2CCN(C[C@H]3CCC[C@H](C(F)(F)F)C3)[C@@H](c3ccc(F)cc3)C2)c1                 0
2  CSCc1cnc(N2CCN(c3ccc(F)c(S(C)(=O)=O)c3)C[C@H]2C(C)C)nc1C(F)(F)F                 1
3  CCOC(=O)c1cnc(N2CCN(c3ccc(COC(C)=O)c(S(C)(=O)=O)c3)C[C@H]2C(C)C)nc1C(F)(F)F                 1
4  CS(=O)(=O)c1cccc(N2CCN(Cc3ccc(C(F)(F)F)nc3)C(c3cccc(Cl)c3)C2)c1 (centres unmarked)                 0
5  Cc1nc(N2CCN(c3ccc(F)c(S(C)(=O)=O)c3)C[C@H]2C(C)C)ncc1Br                 1
6  CC(C)[C@@H]1CN(c2ccc(F)c(S(C)(=O)=O)c2)CCN1c1ncc(C(=O)N2CC(O)C2)c(C(F)(F)F)n1                 0
7  CC(C)[C@H]1CN(c2ccc(C#N)c(S(C)(=O)=O)c2)CCN1Cc1ccc(C(F)(F)F)cc1                 0

---

Biological target: Gal4 DNA binding domain fused to the LBD of LXRβ in HEK293 cells (Homo sapiens (Human))
Sequence (P55055 222-460 limits assumed): as above
Assay: cell-based
metric name: EC50 (µM)

> print(dat)
                                    molecule  unit.spec  relational.operator  measured
 1  COC(=O)c1cnc(N2CCN(c3ccc(F)c(S(C)(=O)=O)c3)C[C@H]2C(C)C)nc1         µM                    =     0.379
 2  CC(C)[C@@H]1CN(c2ccc(F)c(S(C)(=O)=O)c2)CCN1c1ncc(CN(C)C(C)(C)C)c(C(F)(F)F)n1         µM                    >        20
 3  CS(=O)(=O)c1cccc(N2CCN(C[C@@H]3CC[C@@H](C(F)(F)F)OC3)[C@@H](c3ccc(F)cc3)C2)c1 (single isomer, unassigned)         µM                    =     0.887
 4  CC[C@H](O)c1cnc(N2CCN(c3ccc(F)c(S(C)(=O)=O)c3)C[C@H]2C(C)C)nc1C(F)(F)F (single isomer, unassigned)         µM                    =     0.289
 5  CC(C)[C@@H]1CN(c2ccc(F)c(S(C)(=O)=O)c2)CCN1c1nc2ccc(C#N)cc2s1         µM                    =      0.35
 6  CC(C)[C@@H]1CN(c2ccc(F)c(S(C)(=O)=O)c2)CCN1c1nccc(CO)n1         µM                    =      2.48
 7  CC(C)[C@@H]1CN(c2ccc(F)c(S(N)(=O)=O)c2)CCN1c1ncc(C(C)(C)O)c(C(F)(F)F)n1         µM                    =     0.475
 8  CC(C)[C@@H]1CN(c2ccc(F)c(S(C)(=O)=O)c2)CCN1c1ncc(C#N)c(C(F)(F)F)n1         µM                    =     0.152
 9  CS(=O)(=O)c1cccc(N2CCN(C[C@H]3CCC(C(F)(F)F)OC3)[C@@H](c3ccc(F)cc3)C2)c1 (single isomer, unassigned)         µM                    =     0.376
10  Cc1ccc(CN2CCN(c3cccc(S(C)(=O)=O)c3)C[C@H]2c2ccccc2)cc1 (single isomer, unassigned)         µM                    >        20
11  CC(C)[C@H]1CN(c2cccc(S(C)(=O)=O)c2)CCN1C[C@@H]1CC[C@H](C(F)(F)F)OC1 (single isomer, unassigned)         µM                    =     0.036
12  CCN(CCOC)C(=O)c1cnc(N2CCN(c3ccc(F)c(S(C)(=O)=O)c3)C[C@H]2C(C)C)nc1C         µM                    >        20
13  CC(C)[C@@H]1CN(c2cccc(S(C)(=O)=O)c2)CCN1c1ncc(OC(F)F)cn1         µM                    =       1.2
14  CS(=O)(=O)c1cccc(N2CCN(CC3CCOCC3)[C@@H](c3ccccc3)C2)c1         µM                    >        20

Attribution: patent US10144715B2
